Overview of reported pIC50 across a group of molecules:
systemUnderTest: PD-L1 His protein / PD-1 Fc protein (Homo sapiens)
protocolDescription: HTRF Assay (PD-1/PD-L1 interaction)
testParameters: PD-L1 His 6 nM, PD-1 Fc 6 nM
In plain terms, pIC50 is the concentration in mol/L turned into minus its base-10 logarithm.

Answered cases to consult:
| molecule | systemUnderTest | pIC50 |
| --- | --- | --- |
| COc1nc(-c2cccc(-c3cccc(-c4ccc5c(n4)CCN(C[C@@H]4CCC(=O)N4)C5)c3Cl)c2Cl)ccc1CNC[C@@H]1CCC(=O)N1 [Example 426] | PD-L1 His protein / PD-1 Fc protein (Homo sapiens) | 10.00 |
| COc1nc(-c2cccc(-c3cccc(-c4ccc5c(n4)nc(CNC[C@@H]4CCC(=O)N4)n5C)c3Cl)c2Cl)ccc1CNC[C@@H]1CCC(=O)N1 [Example 312] | PD-L1 His protein / PD-1 Fc protein (Homo sapiens) | 10.00 |
| COc1nc(-c2cccc(-c3cccc(-c4ccn5c(=O)c(CNC[C@@H]6CCO6)cnc5c4)c3Cl)c2Cl)ccc1CNC[C@@H]1CCC(=O)N1 [Example 306] | PD-L1 His protein / PD-1 Fc protein (Homo sapiens) | 8.32 |

Proceed to the following item.
Query :: Give the measured pIC50 for COc1cc(-c2ccc(CNC[C@@H]3CCC(=O)N3)c(OC)n2)c(Cl)c(-c2cccc(-c3ccn4c(=O)c(CNC[C@@H]5CCC(=O)N5)cnc4c3)c2Cl)c1 [Example 146]
Result :: 6.62

###

systemUnderTest: PD-L1 His protein / PD-1 Fc protein (Homo sapiens, UniProt Q9NZQ7)
Sequence (Q9NZQ7 19-238 limits assumed): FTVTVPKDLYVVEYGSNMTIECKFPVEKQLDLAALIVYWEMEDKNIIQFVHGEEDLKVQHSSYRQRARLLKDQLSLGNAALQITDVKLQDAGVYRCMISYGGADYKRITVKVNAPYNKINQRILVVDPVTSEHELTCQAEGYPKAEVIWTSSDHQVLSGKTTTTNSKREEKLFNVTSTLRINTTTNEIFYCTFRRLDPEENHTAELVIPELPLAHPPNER
protocolDescription: HTRF Assay (PD-1/PD-L1 interaction)
testParameters: PD-L1 His 6 nM, PD-1 Fc 6 nM
readoutName: log10 IC50 (log10 of the value in nM)
Heads up: the numbers are on a log10 scale; they represent IC50 in nM.

| compound | systemUnderTest | readoutName | experimentalValue |
| --- | --- | --- | --- |
| COc1cc(-c2cccc(-c3cccc(-c4cc5c(c(OC)c4)CN(C[C@@H]4CCC(=O)N4)CC5)c3Cl)c2Cl)cc2c1CN(C[C@@H]1CCC(=O)N1)CC2 [Example 394] | PD-L1 His protein / PD-1 Fc protein (Homo sapiens, UniProt Q9NZQ7) | log10 IC50 | 1.85 |
| Cc1c(-c2ccc3c(c2)CC(N)C3)cccc1-c1cccc(-c2ccn3c(=O)c(CNC[C@@H]4CCC(=O)N4)cnc3c2)c1C (mixture of isomers) [Example 41] | PD-L1 His protein / PD-1 Fc protein (Homo sapiens, UniProt Q9NZQ7) | log10 IC50 | 1.97 |
| COc1nc(-c2cccc(-c3cccc(-c4ccn5c(=O)c(CNC[C@@H](C)O)cnc5c4)c3Cl)c2Cl)ccc1CNC[C@@H](C)O [Example 186] | PD-L1 His protein / PD-1 Fc protein (Homo sapiens, UniProt Q9NZQ7) | log10 IC50 | 0.81 |
| COc1nc(-c2cccc(-c3cccc(-c4ccn5c(=O)c(CNCC6(CO)CC6)cnc5c4)c3Cl)c2Cl)ccc1CNC[C@@H]1CCC(=O)N1 [Example 301] | PD-L1 His protein / PD-1 Fc protein (Homo sapiens, UniProt Q9NZQ7) | log10 IC50 | 1.60 |

Query :: Give the measured log10 IC50 for N#CCCOc1cc(/C=C/c2cccc(-c3cccc(-c4ccn5c(=O)c(CNC[C@@H]6CCC(=O)N6)cnc5c4)c3Cl)c2Cl)c(Cl)cc1CN1CC[C@H](C(=O)O)C1 [Example 173]
Result :: -0.40

Query :: Give the measured log10 IC50 for COc1nc(-c2cccc(-c3cccc(-c4ccn5c(=O)c(CN6CC(C(C)(C)O)C6)cnc5c4)c3Cl)c2Cl)ccc1CNC[C@@H]1CCC(=O)N1 [Example 111]
Result :: 0.81

Query :: Give the measured log10 IC50 for CCNc1nc(-c2cccc(-c3cccc(-c4ccn5c(=O)c(CNC[C@@H]6CCC(=O)N6)cnc5c4)c3C)c2Cl)ccc1CNC[C@@H]1CCC(=O)N1 [Example 74]
Result :: 1.18

Query :: Give the measured log10 IC50 for COc1nc(-c2cccc(-c3cccc(-c4nnc5n4CCN(CCO)C5)c3Cl)c2Cl)ccc1CNC[C@@H]1CCC(=O)N1 [Example 242]
Result :: 3.23

Query :: Give the measured log10 IC50 for COc1nc(-c2cccc(-c3cccc(-c4cc5c(=O)n(C)c(CN6CC(C(C)(C)O)C6)nn5c4)c3Cl)c2Cl)ccc1CNC[C@@H]1CCC(=O)N1 [Example 461]
Result :: 1.11

###

Overview of reported IC50 across a group of compounds:
systemUnderTest: PD-L1 His protein / PD-1 Fc protein (Homo sapiens)
protocolDescription: HTRF Assay (PD-1/PD-L1 interaction)
testParameters: PD-L1 His 6 nM, PD-1 Fc 6 nM
Return type: number; implicit unit nM.

Answered cases to consult:
| compound | IC50, nM |
| --- | --- |
| COC(=O)[C@H]1CCN(Cc2cnc3cc(-c4cccc(-c5cccc(-c6ccc(CNC[C@@H]7CCC(=O)N7)c(OC)n6)c5Cl)c4Cl)cc(C)n3c2=O)C1 | 0.1 |
| COc1nc(-c2cccc(-c3cccc(-c4ccn5c(=O)c(CN6CC(C(=O)O)C6)cnc5c4)c3Cl)c2Cl)ccc1CNC[C@@H]1CCC(=O)N1 | 0.3 |
| COc1nc(-c2cccc(-c3cccc(-c4ccc5c(n4)N(C)CCC5NC[C@@H]4CCC(=O)N4)c3Cl)c2Cl)ccc1CNC[C@@H]1CCC(=O)N1 (single isomer, unassigned) [Example 53] | 1.7 |
| COc1nc(-c2cccc(-c3cccc(-c4ccn5c(=O)c(CNC[C@H]6CNC(=O)C6)cnc5c4)c3Cl)c2Cl)ccc1CNC[C@@H]1CCC(=O)N1 | 0.1 |
| COc1nc(/C=C2\CCc3c2cccc3-c2cccc(-c3ccn4c(=O)c(CNC[C@@H]5CCC(=O)N5)cnc4c3)c2Cl)c(Cl)cc1CNC[C@@H]1CCC(=O)N1 | 5 |

Query :: Give the measured IC50 for "COc1nc(-c2cccc(-c3cccc(-c4cc5c(=O)n(C)c(CNCCC(F)(F)F)nn5c4)c3Cl)c2Cl)ccc1CNC[C@@H]1CCC(=O)N1"
Result :: 33

Query :: Give the measured IC50 for "COc1nc(-c2cccc(-c3cccc(-c4ccc5c(CNC6CCN(C(C)=O)CC6)cn(C)c5n4)c3Cl)c2Cl)ccc1CNC[C@@H]1CCC(=O)N1"
Result :: 220

Query :: Give the measured IC50 for "CNC(=O)[C@H](C)N(C)Cc1cnc2cc(-c3cccc(-c4cccc(-c5ccc(CNC[C@@H]6CCC(=O)N6)c(OC)n5)c4Cl)c3Cl)ccn2c1=O"
Result :: 0.6

Query :: Give the measured IC50 for "COc1nc(-c2cccc(-c3cccc(-c4cc(C)n5c(=O)c(CN[C@H]6C[C@](C)(O)C6)cnc5c4)c3Cl)c2Cl)ccc1CNC[C@@H]1CCC(=O)N1"
Result :: 21

###

systemUnderTest: PD-L1 His protein / PD-1 Fc protein (Homo sapiens, UniProt Q9NZQ7)
protocolDescription: HTRF Assay (PD-1/PD-L1 interaction)
Type: binding
testParameters: PD-L1 His 6 nM, PD-1 Fc 6 nM
Protocol: PD-L1 His protein was prepared and added at the final concentration of 6 nM in the White opaque 384 well plate (Corning cat #3824BC). PD-L1 small molecule inhibitors were diluted by 3-fold starting from 20 μM and a final concentration of 0.001 μM and added to the well. PD-1 Fc protein was added at the final concentration of 6 nM. […] The plate was read using PerkinElmer Envision plate reader and data was analyzed by Prism 6 software.
Overview of reported IC50 across a group of compounds:
Return type: number; implicit unit nM.

Answered cases to consult:
| compound | IC50 (nM) |
| --- | --- |
| COc1nc(-c2cccc(-c3cccc(N4Cc5ccc(CNC[C@@H]6CCC(=O)N6)cc5C4=O)c3Cl)c2Cl)ccc1CNC[C@@H]1CCC(=O)N1 [Example 483] | 0.1 |
| CCOc1nc(-c2cccc(-c3cccc(-c4ccn5c(=O)c(CNC[C@@H]6CCC(=O)N6)cnc5c4)c3C)c2Cl)ccc1CNC[C@@H]1CCC(=O)N1 [Example 72] | 9.4 |
| Cc1c(-c2ccn3c(=O)c(CNC[C@@H]4CCC(=O)N4)cnc3c2)cccc1-c1cccc(-c2ccc(CNC[C@@H]3CCC(=O)N3)c(C(F)(F)F)n2)c1Cl [Example 78] | 16 |
| COc1nc(-c2cccc(-c3cccc(-c4ccn5c(=O)c(CN(C)CCCO)cnc5c4)c3Cl)c2Cl)ccc1CNC[C@@H]1CCC(=O)N1 [Example 317] | 0.2 |
| COc1nc(-c2cccc(-c3cccc(-c4ccn5c(=O)c(CNCCN6CCNC6=O)cnc5c4)c3Cl)c2Cl)ccc1CNC[C@@H]1CCC(=O)N1 [Example 207] | 0.3 |

Query :: Give the measured IC50 for COc1nc(-c2cccc(-c3cccc(-c4ccn5c(=O)c(CNCC6(O)CC6)cnc5c4)c3Cl)c2Cl)ccc1CNC[C@@H]1CCC(=O)N1 [Example 234]
Result :: 0.1

Recorded values, source patent US20230143612A1.
